I'd appreciate it if you could supply Binding to PAR3 ratio values for the items below.
Molecular target: T1, hPAR3 (Biotin) (human, biotin on the C-terminal lysine (GGGGSK-biotin, SKB))
T1 construct: also called hPAR3 peptide
T1 peptide: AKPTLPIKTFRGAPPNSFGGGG
Test: ELISA, hybridoma supernatant
One number for each entry, in ratio.

>>> observed_value("5F.RE6 (antibody, IgG2a, V domains shown, Human variable regions on mouse constant regions; isotype IgG2a/κ; Tested as parent hybridoma supernatant (MoB5F E6); also called 5F RE6.D3.E7; MoB5F E6) VH: QVQLAESGGGVVQPGRSLRVSCAASGFTFSSYGMHWVRQAPGKGLEWVAVIWYDGTKKYYADSLKGRFTISRDNSKYTLYLQMNSLRADDTALYFCARKGARGITGLDYWGQGTLVTVSS VL: DIQMTQSPSSLSASAGDRITITCRASQSISNYLNWYQQKPGKAPKLLIYAASSLQSGVPSRFSGSGSGTDFTLTISSLQPEDFASYYCRQNYNTPLTFGGGTKVEIK")
0.8

Would you mind giving Binding to PAR3 ratio for every binder in the list below?
1. 5G.RG1 (antibody, IgG1, V domains shown, Human variable regions on mouse constant regions; isotype IgG1/κ; Tested as parent hybridoma supernatant (MoB5G G1); also called 5G RG1.D3.C2b; MoB5G G1) VH: QVQLVESGGGVVQPGRSLRLSCVASGFTLSSYGMHWVRQAPGKGLEWVAVIWYDGSSKYYTDSVKGRFDISRDNSKNTLYLQMNILRAEDTAVYYCARETILIGGVPFDYWGQGTLVTVSS VL: EIVLTQSPGTLSLSPGERATLSCGASQSIRSNYLAWYQQKPGQAPRLLIYGASSRATGTPDRFSGSGSGTDFTLTITRLEPEDFALYYCQQYGRSYTFGQGTKLEIK
2. 5H.RF2 (antibody, IgG2a, V domains shown, Human variable regions on mouse constant regions; isotype IgG2a/κ; also called 5H.RF2.A5b.D3.C2; MoB5H F2) VH: QVQLQQWGAGLLKPSETLALTCAVYGGSLSDYYWSWIRQPPGKGLEWIGEINHSGTTNYNPSLKSRVTISVDTSKKQFSLKLSSVTAADTAVYYCAIEYSNSRGYYYGMDVWGQGTTVTVSS VL: DIQMTQSPSSLSASAGDRITITCRASQTISNYLNWYQQKPGKAPKLLIYAASSLQSGVPSRFSGSGSGTDFTLTISSLQPEDFASYYCRQNYNTPLTFGGGTKVEIK

Response:
[0.8, 0.9]

Request: Which value of Binding to PAR3 ratio has been reported for 5I.RG1 (antibody, IgG3, V domains shown, Human variable regions on mouse constant regions; isotype IgG3/κ; also called 5I.RG1.D6.C1b; 51.RG1) VH: QVQLQQWGAGLLKPSETLSLACAISSGSFSTYFWRWIRQPPGKGLEWIGEIIHTGSTTYNPSLKSRVTISVDTSKNQLSLKLSSVTAADTAVYYCAFEYSSSGGYYYGMDVWGQGTTVTVSS VL: DIQMTQSPSSLSASVGDRVTITCRASQSISSYLNWYQQIPGKAPNLLIYAASSLRSGVPSRFSGSGSGTDFTLTISSLQPEDFATYYCQQTYSTPLTFGGGTKVEIK in the records?
Response: 1
